# Test system: Escherichia coli TOP10
# experiment: shrunken log2 fold change of peptide-encoding DNA abundance (4.5 h post-induction vs induction); higher = less antimicrobial activity (less host growth inhibition)
# measurement-context: time post-induction: 4.5 h; library: site-saturation at positions 5, 18, 19, 20
parameter-measured: shrunken log2 fold change
Lab note: jot the number down without any unit.

// shrunken log2 fold change lookup, key: RRIRPRPPRLPRPRPRPMPGPRP
-0.0627

// shrunken log2 fold change lookup, key: RRIRGRPPRLPRPRPRPHIQPRP
0.192

// shrunken log2 fold change lookup, key: RRIRRRPPRLPRPRPRPTKIPRP
0.0521

// shrunken log2 fold change lookup, key: RRIRVRPPRLPRPRPRPWQQPRP
-0.097

// shrunken log2 fold change lookup, key: RRIRGRPPRLPRPRPRPEFEPRP
0.612

// shrunken log2 fold change lookup, key: RRIRPRPPRLPRPRPRPWFWPRP
0.281

// shrunken log2 fold change lookup, key: RRIRGRPPRLPRPRPRPATMPRP
0.44

// shrunken log2 fold change lookup, key: RRIRHRPPRLPRPRPRPVYWPRP
-0.262

// shrunken log2 fold change lookup, key: RRIRIRPPRLPRPRPRPWCMPRP
-0.693

// shrunken log2 fold change lookup, key: RRIRGRPPRLPRPRPRPAKNPRP
0.554

// shrunken log2 fold change lookup, key: RRIRKRPPRLPRPRPRPTSYPRP
-0.152

###

# Test system: Escherichia coli TOP10
# experiment: shrunken log2 fold change of peptide-encoding DNA abundance (4.5 h post-induction vs induction); higher = less antimicrobial activity (less host growth inhibition)
# measurement-context: time post-induction: 4.5 h; library: site-saturation at positions 5, 18, 19, 20
Given measured shrunken log2 fold change, output met if it is greater than or equal to 0.02 and not met if not.

* RRIRERPPRLPRPRPRPQTRPRP | met

With those in mind, consider the next sequence.
Test whether the sequence RRIRYRPPRLPRPRPRPLLKPRP records shrunken log2 fold change of 0.02 or higher.
not met

###

# Tested on: Escherichia coli TOP10
# experiment: shrunken log2 fold change of peptide-encoding DNA abundance (4.5 h post-induction vs induction); higher = less antimicrobial activity (less host growth inhibition)
# measurement-context: time post-induction: 4.5 h; library: site-saturation at positions 5, 18, 19, 20
Given measured shrunken log2 fold change, output 1 (yes) if it is greater than or equal to -0.007 and 0 (no) if not.

Reference set (7 entries):
• RRIRLRPPRLPRPRPRPDQRPRP = 1 (yes)
• RRIRTRPPRLPRPRPRPCRGPRP = 0 (no)
• RRIRLRPPRLPRPRPRPAMFPRP = 0 (no)
• RRIRSRPPRLPRPRPRPWKEPRP = 0 (no)
• RRIRWRPPRLPRPRPRPHSDPRP = 1 (yes)
• RRIRKRPPRLPRPRPRPYTIPRP = 0 (no)
• RRIRDRPPRLPRPRPRPSCYPRP = 0 (no)

Test whether the sequence RRIRERPPRLPRPRPRPIFRPRP records shrunken log2 fold change of -0.007 or higher.
0 (no)

###

# Test system: Escherichia coli TOP10;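 note: peptides expressed intracellularly from a pBAD plasmid library in pooled LB shake-flask culture, induced with 0.3% L-arabinose, DNA abundance read by NGS, three biological replicates, DESeq2 with apeglm shrinkage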
# experiment: shrunken log2 fold change of peptide-encoding DNA abundance (4.5 h post-induction vs induction); higher = less antimicrobial activity (less host growth inhibition)
# measurement-context: time post-induction: 4.5 h; library: site-saturation at positions 5, 18, 19, 20
Given measured shrunken log2 fold change, output true (1) if it is greater than or equal to -0.06 and false (0) if not.

Reference set (2 entries):
• RRIRKRPPRLPRPRPRPDFHPRP = false (0)
• RRIRQRPPRLPRPRPRPYQMPRP = true (1)

Test whether the sequence RRIRIRPPRLPRPRPRPIGLPRP records shrunken log2 fold change of -0.06 or higher.
false (0)

Test whether the sequence RRIRIRPPRLPRPRPRPYYVPRP records shrunken log2 fold change of -0.06 or higher.
false (0)

Test whether the sequence RRIRTRPPRLPRPRPRPAIRPRP records shrunken log2 fold change of -0.06 or higher.
true (1)

Test whether the sequence RRIRLRPPRLPRPRPRPHMYPRP records shrunken log2 fold change of -0.06 or higher.
false (0)

Test whether the sequence RRIRYRPPRLPRPRPRPCDWPRP records shrunken log2 fold change of -0.06 or higher.
true (1)

Test whether the sequence RRIRERPPRLPRPRPRPTGGPRP records shrunken log2 fold change of -0.06 or higher.
true (1)

Test whether the sequence RRIRQRPPRLPRPRPRPSEYPRP records shrunken log2 fold change of -0.06 or higher.
false (0)

Test whether the sequence RRIRTRPPRLPRPRPRPKNYPRP records shrunken log2 fold change of -0.06 or higher.
false (0)

Test whether the sequence RRIRHRPPRLPRPRPRPNPFPRP records shrunken log2 fold change of -0.06 or higher.
false (0)

Test whether the sequence RRIRTRPPRLPRPRPRPVLIPRP records shrunken log2 fold change of -0.06 or higher.
true (1)

Test whether the sequence RRIRDRPPRLPRPRPRPSRHPRP records shrunken log2 fold change of -0.06 or higher.
true (1)

Test whether the sequence RRIRDRPPRLPRPRPRPFKAPRP records shrunken log2 fold change of -0.06 or higher.
false (0)
